Source: patent US20200170291A1

ASSAY_NAME: MALVERN MASTERSIZER 2000 particle size (d10, d50, d90)
Assay type: physicochemical
EXPERIMENTAL_READOUT: PS d50 (μ)
A number alone suffices; assume μ.

Sample records with PS d50:
[
  {
    "COMPOUND": "O.OC[C@@H](O)[C@@H](O[C@@H]1O[C@H](CO)[C@H](O)[C@H](O)[C@H]1O)[C@H](O)[C@@H](O)CO",
    "PS d50 / μ": 365.3
  },
  {
    "COMPOUND": "OC[C@@H](O)[C@@H](O[C@H]1O[C@H](CO)[C@H](O)[C@H](O)[C@H]1O)[C@H](O)[C@@H](O)CO",
    "PS d50 / μ": 426.1
  },
  {
    "COMPOUND": "OC[C@@H](O)[C@@H](O[C@@H]1O[C@H](CO)[C@H](O)[C@H](O)[C@H]1O)[C@H](O)[C@@H](O)CO [Sample 1b]",
    "PS d50 / μ": 56.7
  },
  {
    "COMPOUND": "OC[C@@H](O)[C@@H](O[C@@H]1O[C@H](CO)[C@H](O)[C@H](O)[C@H]1O)[C@H](O)[C@@H](O)CO [Sample 2b]",
    "PS d50 / μ": 56.5
  },
  {
    "COMPOUND": "OC[C@@H](O)[C@@H](O[C@@H]1O[C@H](CO)[C@H](O)[C@H](O)[C@H]1O)[C@H](O)[C@@H](O)CO [Proof of Concept]",
    "PS d50 / μ": 60.0
  }
]

State the recorded PS d50 for this entry: OC[C@@H](O)[C@@H](O[C@@H]1O[C@H](CO)[C@H](O)[C@H](O)[C@H]1O)[C@H](O)[C@@H](O)CO [Jet Milled B]
60.0

Repeat for the following compound: OC[C@@H](O)[C@@H](O[C@@H]1O[C@H](CO)[C@H](O)[C@H](O)[C@H]1O)[C@H](O)[C@@H](O)CO [Sample 3b]
113.1

====

ASSAY_NAME: MALVERN MASTERSIZER 2000 particle size (d10, d50, d90)
Assay type: physicochemical
EXPERIMENTAL_READOUT: PS d90 (μ)
Numeric only. Scale: μ

Before answering, review these 3 worked examples.
[
  {
    "MOLECULE": "OC[C@@H](O)[C@@H](O[C@H]1O[C@H](CO)[C@H](O)[C@H](O)[C@H]1O)[C@H](O)[C@@H](O)CO",
    "PS d90 [μ]": 922.8
  },
  {
    "MOLECULE": "OC[C@@H](O)[C@@H](O[C@@H]1O[C@H](CO)[C@H](O)[C@H](O)[C@H]1O)[C@H](O)[C@@H](O)CO [Sample 3b]",
    "PS d90 [μ]": 656.4
  },
  {
    "MOLECULE": "OC[C@@H](O)[C@@H](O[C@@H]1O[C@H](CO)[C@H](O)[C@H](O)[C@H]1O)[C@H](O)[C@@H](O)CO [Jet Milled B]",
    "PS d90 [μ]": 316.2
  }
]

// returns reported PS d90 for input "O.OC[C@@H](O)[C@@H](O[C@@H]1O[C@H](CO)[C@H](O)[C@H](O)[C@H]1O)[C@H](O)[C@@H](O)CO"
720.3

Now give it for OC[C@@H](O)[C@@H](O[C@@H]1O[C@H](CO)[C@H](O)[C@H](O)[C@H]1O)[C@H](O)[C@@H](O)CO [Sample 1b] too.
420.9

And what about the molecule OC[C@@H](O)[C@@H](O[C@@H]1O[C@H](CO)[C@H](O)[C@H](O)[C@H]1O)[C@H](O)[C@@H](O)CO [Sample 2b] ?
401.2

What do we get for OC[C@@H](O)[C@@H](O[C@@H]1O[C@H](CO)[C@H](O)[C@H](O)[C@H]1O)[C@H](O)[C@@H](O)CO [Proof of Concept] ?
316.2
